# reported IC50; entries follow
# Assay system: full length GAK protein N-terminally fused with NanoLuc luciferase (Homo sapiens, UniProt O14976)
# Sequence (O14976 2-1311): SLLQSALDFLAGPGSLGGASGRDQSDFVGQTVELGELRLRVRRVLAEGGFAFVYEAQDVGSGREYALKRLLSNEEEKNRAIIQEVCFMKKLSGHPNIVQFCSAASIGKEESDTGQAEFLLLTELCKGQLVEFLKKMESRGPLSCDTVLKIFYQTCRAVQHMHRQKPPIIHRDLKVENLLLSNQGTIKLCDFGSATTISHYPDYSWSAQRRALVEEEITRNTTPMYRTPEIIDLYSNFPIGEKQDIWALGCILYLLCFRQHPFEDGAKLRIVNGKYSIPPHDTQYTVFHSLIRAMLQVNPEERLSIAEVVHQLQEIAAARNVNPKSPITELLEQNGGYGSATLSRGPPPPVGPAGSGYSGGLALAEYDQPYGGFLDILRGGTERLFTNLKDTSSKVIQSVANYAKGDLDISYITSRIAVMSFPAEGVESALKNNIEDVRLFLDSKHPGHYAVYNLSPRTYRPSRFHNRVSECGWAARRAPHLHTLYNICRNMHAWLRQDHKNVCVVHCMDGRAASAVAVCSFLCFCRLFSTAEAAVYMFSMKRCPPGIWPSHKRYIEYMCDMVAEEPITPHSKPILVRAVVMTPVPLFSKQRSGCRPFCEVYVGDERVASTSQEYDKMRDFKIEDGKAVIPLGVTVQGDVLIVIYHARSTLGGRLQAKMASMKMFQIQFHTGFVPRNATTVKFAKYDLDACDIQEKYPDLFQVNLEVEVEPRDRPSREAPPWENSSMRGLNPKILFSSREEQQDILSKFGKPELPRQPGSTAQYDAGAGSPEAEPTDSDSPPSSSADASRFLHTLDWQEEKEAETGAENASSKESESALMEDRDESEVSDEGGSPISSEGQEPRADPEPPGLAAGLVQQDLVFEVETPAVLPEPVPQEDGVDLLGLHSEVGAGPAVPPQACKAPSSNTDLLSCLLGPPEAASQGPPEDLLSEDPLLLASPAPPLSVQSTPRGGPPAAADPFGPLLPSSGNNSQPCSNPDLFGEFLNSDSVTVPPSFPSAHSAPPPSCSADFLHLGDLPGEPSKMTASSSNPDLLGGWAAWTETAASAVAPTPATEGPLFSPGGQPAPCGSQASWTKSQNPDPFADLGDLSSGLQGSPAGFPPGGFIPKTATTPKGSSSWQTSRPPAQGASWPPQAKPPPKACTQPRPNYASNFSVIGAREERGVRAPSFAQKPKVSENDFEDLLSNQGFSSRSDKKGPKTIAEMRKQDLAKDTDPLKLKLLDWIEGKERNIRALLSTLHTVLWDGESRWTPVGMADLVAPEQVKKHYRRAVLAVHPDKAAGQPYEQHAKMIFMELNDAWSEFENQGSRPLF
# Experimental protocol: cell-based
# Set-up: species or system HEK293T
Reported endpoint: IC50 (µM)

C#Cc1cccc(Nc2c(C#N)cnc3ccc(Br)cc23)c1 = 4.4
C#Cc1cccc(Nc2c(C#N)cnc3ccc(F)cc23)c1 = 3.8
C#Cc1cccc(Nc2c(C#N)cnc3ccc(Cl)cc23)c1 = 3.2
C#Cc1cccc(Nc2c(C#N)cnc3ccccc23)c1 = 1.5

* * *

# Assay system: SLK (Homo sapiens, UniProt Q9H2G2)
# Sequence (Q9H2G2 34-292): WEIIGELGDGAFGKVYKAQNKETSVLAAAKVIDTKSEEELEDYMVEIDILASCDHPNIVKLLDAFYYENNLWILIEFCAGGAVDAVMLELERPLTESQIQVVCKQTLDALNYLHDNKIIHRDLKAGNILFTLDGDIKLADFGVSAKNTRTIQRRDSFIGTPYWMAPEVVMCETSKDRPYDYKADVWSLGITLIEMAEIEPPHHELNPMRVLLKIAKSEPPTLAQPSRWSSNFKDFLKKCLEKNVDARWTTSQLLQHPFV
# Experimental protocol: TR-FRET binding displacement assay
pKi: −log10 of the molar value.
Class TRUE: pKi at least 5. Class FALSE: pKi below 5.

COc1cc(Nc2ccnc3ccc(S(C)(=O)=O)cc23)cc(OC)c1OC = FALSE
COc1cc(Nc2ccnc3ccc(C(F)(F)F)cc23)cc(OC)c1OC = FALSE
COc1ccc2nccc(Nc3cc(OC)c(OC)c(OC)c3)c2c1 = FALSE
COc1cc2ncnc(Nc3ccc(F)c(Cl)c3)c2cc1NC(=O)/C=C/CN1CCCCC1 = TRUE
C#Cc1ccc(F)c(Nc2ncnc3cc(C#N)ccc23)c1 = TRUE
COc1cc2nccc(Nc3cc(OC)c(OC)c(OC)c3)c2cc1OC = TRUE
C#Cc1cccc(Nc2ncnc3cc(OC)c(OC)cc23)c1 = TRUE
C#Cc1cccc(Nc2ccnc3cc(OCCOC)c(OCCOC)cc23)c1 = TRUE
